Source of measurements: PubChem BioAssay

Measured inhibition, listed per entry for reference.
ASSAY_REMARKS: growth inhibition, single agents and combos, LFS_MB_2R, cell-based, cisplatin combos, synergistic combos for chromothripsis tumors (AID 1671457);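 also: cells exposed to compound for four days before readout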
CONDITION_DETAILS: LFS_MB_2R medulloblastoma cells, at 0.5 µM, active compounds read high
Give the quantity in %, number only.

- COMPOUND: "Cc1cn(C2CC(O)C(COP(=O)(O)OP(=O)(O)OP(=O)(O)O)O2)c(=O)[nH]c1=O (stereo not drawn)"
  READOUT_UNITS: "%"
  inhibition: 0.97

Query: Name the recorded inhibition for CC(Oc1cc(-c2cnn(C3CCNCC3)c2)cnc1N)c1c(Cl)ccc(F)c1Cl (stereo not drawn) .
Response: -6.87

Query: Name the recorded inhibition for C[C@H](NC(=O)c1ccccc1N=Cc1c(O)ccc2ccccc12)c1ccccc1 .
Response: -0.99

Query: Name the recorded inhibition for C#CCC(CCCCCC)C(=O)O (stereo not drawn) .
Response: -4.49

Query: Name the recorded inhibition for O=C(CCSc1nc2ccccc2c(=O)[nH]1)NC1CCC(c2nnc(-c3ccccc3)o2)CC1 (stereo not drawn) .
Response: -3.45

Query: Name the recorded inhibition for COc1cccc2c1C(=O)c1c(O)c3c(c(O)c1C2=O)CC(O)(C(=O)CO)CC3OC1CC(N)C(OC2CCCCO2)C(C)O1 (stereo not drawn) .
Response: -17

Query: Name the recorded inhibition for CO[C@H]1/C=C/O[C@@]2(C)Oc3c(C)c(O)c4c(O)c(c5c(c4c3C2=O)=NC2(CCN(CC(C)C)CC2)N=5)NC(=O)/C(C)=C\C=C\[C@H](C)[C@H](O)[C@@H](C)[C@@H](O)[C@@H](C)[C@H](OC(C)=O)[C@@H]1C .
Response: 1.7

Query: Name the recorded inhibition for O=c1[nH]c(=S)[nH]c2nc(-c3ccccc3)c(-c3ccccc3)nc12 .
Response: -9.62
